test: Pharmacokinetic experiments in male SD rats, single peroral administration
Assay type: in vivo, rat
recordedConditions: male, SD, plasma, 5 mg/kg; rat, oral; read-out: half-life (converted)
assayEndpoint: half-life (min)
Answers are plain numbers, in min.

half-life recorded for this compound, N#Cc1ccnc(N2[C@H](C(=O)N(c3cccc(F)c3)[C@H](C(=O)NC3CC(F)(F)C3)c3ccccc3Cl)CCS2(=O)=O)c1 , is 642

---

test: Pharmacokinetic experiments in male SD rats, single peroral administration
Format: in vivo, rat
recordedConditions: rat, plasma; male SD rats, oral 5 mg/kg, 0.5% MC, 0.2% Tween80
assayEndpoint: Tmax (h)
Numbers only, in h.

{"compound": "N#Cc1ccnc(N2C(=O)CC[C@H]2C(=O)N(c2cncc(F)c2)[C@H](C(=O)NC2CC(F)(F)C2)c2ccccc2Cl)c1 [AG-120, ivosidenib, reference compound]", "quantityUnit": "h", "Tmax": 0.67}

Tmax recorded for this compound, N#Cc1ccnc(N2[C@H](C(=O)N(c3cccc(F)c3)[C@H](C(=O)NC3CC(F)(F)C3)c3ccccc3Cl)CCS2(=O)=O)c1 [Example 12] , is 4
